Experiment: Antiproliferative activity against human U-87 MG cells
Assay type: functional, cell-based, U-87MG ATCC
pIC50: −log10 of the molar value.

| MOLECULE | pIC50 |
| --- | --- |
| C[C@H]1[C@H](OCCOc2cccc(/C=C/S(=O)(=O)Nc3ccccc3Cl)c2)O[C@@H]2O[C@@]3(C)CC[C@H]4[C@H](C)CC[C@@H]1[C@@]24OO3 | 7.30 |
| C[C@H]1[C@H](OCCOc2cccc(/C=C/S(=O)(=O)Nc3cccc(Cl)c3)c2)O[C@@H]2O[C@@]3(C)CC[C@H]4[C@H](C)CC[C@@H]1[C@@]24OO3 | 7.30 |
| Cc1ccccc1NS(=O)(=O)/C=C/c1cccc(OCCO[C@@H]2O[C@@H]3O[C@@]4(C)CC[C@H]5[C@H](C)CC[C@@H]([C@H]2C)[C@@]35OO4)c1 | 7.30 |
| C[C@H]1[C@H](OCCNC(=O)c2ccc(COc3ccc(/C=C/S(=O)(=O)Nc4ccc(Cl)cc4)cc3)cc2)O[C@@H]2O[C@@]3(C)CC[C@H]4[C@H](C)CC[C@@H]1[C@@]24OO3 | 7.05 |
| C[C@H]1[C@H](OCCOc2cccc(/C=C/S(=O)(=O)Nc3ccc(OC(F)(F)F)cc3)c2)O[C@@H]2O[C@@]3(C)CC[C@H]4[C@H](C)CC[C@@H]1[C@@]24OO3 | 7.30 |
| C[C@@H]1CC[C@H]2[C@@H](C)C(OCCOc3cccc(/C=C/S(=O)(=O)Nc4ccc(Cl)cc4)c3)O[C@@H]3O[C@@]4(C)CC[C@@H]1[C@]32OO4 (single isomer, unassigned) | 7.30 |
| Cc1ccc(F)c(NS(=O)(=O)/C=C/c2ccc(OCc3ccc(C(=O)NCCO[C@@H]4O[C@@H]5O[C@@]6(C)CC[C@H]7[C@H](C)CC[C@@H]([C@H]4C)[C@@]57OO6)cc3)cc2)c1 | 7.05 |
| C[C@H]1[C@@H](O)O[C@@H]2O[C@@]3(C)CC[C@H]4[C@H](C)CC[C@@H]1[C@@]24OO3 | 5.28 |
| C[C@H]1[C@H](OCCOc2cccc(/C=C/S(=O)(=O)Nc3ccccc3)c2)O[C@@H]2O[C@@]3(C)CC[C@H]4[C@H](C)CC[C@@H]1[C@@]24OO3 | 7.30 |
| C[C@H]1[C@H](OCCOc2cccc(/C=C/S(=O)(=O)Nc3c(Cl)cccc3Cl)c2)O[C@@H]2O[C@@]3(C)CC[C@H]4[C@H](C)CC[C@@H]1[C@@]24OO3 | 7.30 |
| Cc1ccc(F)c(NS(=O)(=O)/C=C/c2cccc(OCCOC3O[C@@H]4O[C@@]5(C)CC[C@H]6[C@H](C)CC[C@@H]([C@H]3C)[C@@]46OO5)c2)c1 (some centres not stated) | 7.30 |
| C[C@H]1[C@H](OCCNC(=O)c2ccc(COc3ccc(/C=C/S(=O)(=O)Nc4ccc(OC(F)(F)F)cc4)cc3)cc2)O[C@@H]2O[C@@]3(C)CC[C@H]4[C@H](C)CC[C@@H]1[C@@]24OO3 | 7.05 |

Hello, the source for this data is ChEMBL document CHEMBL5244230, in case you need it.
